As an illustration, consider measured IC50 for compounds on FXa (Homo sapiens, UniProt P00742).
Sequence (P00742 235-488 limits assumed): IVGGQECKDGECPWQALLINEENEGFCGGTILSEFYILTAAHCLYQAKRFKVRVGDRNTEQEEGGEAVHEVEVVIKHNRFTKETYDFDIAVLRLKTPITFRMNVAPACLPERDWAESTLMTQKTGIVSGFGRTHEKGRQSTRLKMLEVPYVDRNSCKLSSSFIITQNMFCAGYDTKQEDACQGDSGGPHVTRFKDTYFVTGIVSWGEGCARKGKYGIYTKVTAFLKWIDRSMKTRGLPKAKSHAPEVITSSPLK
Sequence (P00742 41-179 limits assumed): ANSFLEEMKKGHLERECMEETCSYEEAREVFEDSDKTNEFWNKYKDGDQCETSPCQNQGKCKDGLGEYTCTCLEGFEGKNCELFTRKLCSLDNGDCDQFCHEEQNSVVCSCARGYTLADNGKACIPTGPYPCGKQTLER
assay_endpoint: IC50 (µM)

(A) O=C1COCCN1c1ccc(NC(=O)N2CCCN2C(=O)Nc2ccc(Cl)cc2)cc1Cl
(B) C#Cc1ccc(NC(=O)N2CCCN2C(=O)Nc2ccc(N3CCOCC3=O)c(Cl)c2)cc1
Input: Would you kindly point out which of A and B has the smaller IC50 figure? Reply briefly: the label of your chosen item.
Output: B
